- Target of assay: Tyrosine-protein kinase ABL1 (Homo sapiens, UniProt P00519, D382N)
- Sequence (P00519 as listed by the source D382N): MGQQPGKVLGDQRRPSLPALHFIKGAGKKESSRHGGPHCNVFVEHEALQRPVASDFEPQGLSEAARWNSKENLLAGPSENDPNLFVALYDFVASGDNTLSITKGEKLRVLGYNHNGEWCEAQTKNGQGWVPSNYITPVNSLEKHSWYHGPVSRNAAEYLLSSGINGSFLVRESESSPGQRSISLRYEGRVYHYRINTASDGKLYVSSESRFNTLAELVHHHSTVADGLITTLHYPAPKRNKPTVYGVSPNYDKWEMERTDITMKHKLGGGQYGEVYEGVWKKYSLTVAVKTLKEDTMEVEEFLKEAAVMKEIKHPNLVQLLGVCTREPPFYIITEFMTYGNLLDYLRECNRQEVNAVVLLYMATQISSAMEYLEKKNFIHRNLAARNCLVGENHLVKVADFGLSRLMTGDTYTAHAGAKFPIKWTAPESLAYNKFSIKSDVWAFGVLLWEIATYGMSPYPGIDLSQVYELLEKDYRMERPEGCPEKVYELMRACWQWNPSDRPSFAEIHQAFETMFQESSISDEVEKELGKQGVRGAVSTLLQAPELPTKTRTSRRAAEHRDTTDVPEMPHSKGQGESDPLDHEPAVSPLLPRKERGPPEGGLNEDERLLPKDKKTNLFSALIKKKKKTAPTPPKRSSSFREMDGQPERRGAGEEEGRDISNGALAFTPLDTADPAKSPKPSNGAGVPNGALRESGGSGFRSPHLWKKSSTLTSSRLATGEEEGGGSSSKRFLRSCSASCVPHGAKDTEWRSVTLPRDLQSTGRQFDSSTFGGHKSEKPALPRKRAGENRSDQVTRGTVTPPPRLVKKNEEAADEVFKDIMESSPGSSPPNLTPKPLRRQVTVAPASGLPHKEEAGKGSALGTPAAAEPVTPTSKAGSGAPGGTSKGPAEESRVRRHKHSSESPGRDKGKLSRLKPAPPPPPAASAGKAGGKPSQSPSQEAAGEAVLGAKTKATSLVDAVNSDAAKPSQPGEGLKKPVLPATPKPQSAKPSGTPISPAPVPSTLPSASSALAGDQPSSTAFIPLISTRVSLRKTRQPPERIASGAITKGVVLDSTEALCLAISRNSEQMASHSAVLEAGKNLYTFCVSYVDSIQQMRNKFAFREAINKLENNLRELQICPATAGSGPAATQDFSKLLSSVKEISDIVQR
- Measurement protocol: Displacement of Myr-GQQPGKVLGDQRRPSL(K-TAMRA)G-amide from N-terminal-truncated human c-ABL D382N mutant (46 to 534 residues) after 30 mins by fluorescence polarization binding assay
pIC50: −log10 of the molar value.
Reported endpoint: pIC50

Here is how some compounds turned out for pIC50.
• CC(=O)NC1=NN(c2ccc(Cl)c(Cl)c2)CC1C (racemic) = 6.10
• CC(=O)Nc1nc(-c2ccc(Cl)c(C)c2)cs1 = 6.10
• CC(=O)Nc1nc(-c2ccc(F)c(Cl)c2)cs1 = 5.60
• O=C(NC1=NN(c2ccc(Cl)c(Cl)c2)CC1CCO)c1ccncc1 (racemic) = 6.80
• O=C(Nc1nc(-c2ccc(Cl)c(Cl)c2)cs1)c1c(F)cccc1F = 6.50

P = O=C1CCCC(C(=O)NC2=NN(c3ccc(Cl)c(Cl)c3)CC2)N1 (stereo not drawn)
Q = O=C(NC1=NN(c2ccc(Cl)c(Cl)c2)CC1)c1ccncc1
R = CC(=O)Nc1nc(-c2cc(Cl)c(Cl)s2)cs1
S = CC(=O)N[C@@H](C)C(=O)NC1=NN(c2ccc(Cl)c(Cl)c2)CC1
T = O=C(Nc1nc(-c2ccc(Cl)c(Cl)c2)cs1)c1cncs1
Ask: Number of compounds to sort: 5. Sort criterion: pIC50, ascending. Answer by listing the labels in the requested order.
Result: R, S, P, Q, T
(R: 5.20, S: 5.90, P: 6.30, Q: 6.50, T: 6.70)

P = O=C(Nc1nc(-c2ccc(Cl)c(Cl)c2)cs1)C1CC1
Q = N#CCC(=O)Nc1nc(-c2ccc(Cl)c(Cl)c2)cs1
Ask: Which of the two gives a bigger number for pIC50: P or Q ? Give the label under which the chosen entry appears.
Result: P

a = CC(=O)NC1=NN(c2ccc(Cl)c(Cl)c2)CC1
b = CC(=O)Nc1nc(-c2ccc(Br)s2)cs1
c = N#CCC(=O)Nc1ccn(-c2ccc(Cl)c(Cl)c2)n1
Ask: // ranking: key=pIC50, reverse=True Show the ranking through the labels, in the order asked for.
Result: a, c, b

A = O=C(NC1=NN(c2ccc(Cl)c(Cl)c2)CC1)c1cccnc1F
B = Cc1ncncc1C(=O)NC1=NN(c2ccc(Cl)c(Cl)c2)CC1
Ask: Record comparison, field pIC50: mark the lower of A and B . Lab note: record the label of whichever item you select.
Result: A

Taken from ChEMBL document CHEMBL4411335.
